# measurement protocol: Caco-2 permeability screening
# Assay type: in vitro ADME
# applied conditions: human, Caco-2, pH 7.4; known drug standards; read-out: Papp Basolateral to Apical
Readings of Papp B→A at 60 min, 20 μM for the listed molecules

molecule	Papp B→A at 60 min, 20 μM
CN(Cc1cnc2nc(N)nc(N)c2n1)c1ccc(C(=O)N[C@@H](CCC(=O)O)C(=O)O)cc1 [Methotrexate, reference compound]	0.03 ×10⁻⁶ cm/s
CN(C)C(=O)C(CCN1CCC(O)(c2ccc(Cl)cc2)CC1)(c1ccccc1)c1ccccc1 [Loperamide, reference compound]	14.8 ×10⁻⁶ cm/s

====

# measurement protocol: RBC/PL partitioning equilibrium in whole blood
# applied conditions: 0.1 μg/mL, pooled K2EDTA whole blood, 2 hours, LC-MS/MS (ICP-MS for Ga^3+)
Readings of K2EDTA KRBC/PL for the listed molecules

molecule	K2EDTA KRBC/PL
CCCCOc1ccc(/C=N/c2ccccc2/N=C/c2ccc(OCCCC)cc2O)c(O)c1.[Ga+3] [GaSal-15]	5.40
CC(=Nc1ccccc1N=Cc1ccc(OCCC(=O)O)cc1O)c1ccccc1O.[Ga+3] [GaSal-9]	820
CC(=Nc1ccccc1/N=C/c1ccc(OCCCO)cc1O)c1ccccc1O.[Ga+3] [GaSal-12]	0.11
O=C(O)CCOc1ccc(C=Nc2ccccc2N=Cc2ccc(OCCC(=O)O)cc2O)c(O)c1.[Ga+3] [GaSal-4]	2288
OCCCOc1ccc(/C=N/c2ccccc2/N=C/c2ccc(OCCCO)cc2O)c(O)c1.[Ga+3] [GaSal-11]	0.05
COCCOCCOc1ccc(C=Nc2ccccc2N=Cc2ccc(OCCOCCOC)cc2O)c(O)c1.[Ga+3] [GaSal-5]	0.63
Oc1ccccc1/C=N/c1ccccc1/N=C/c1ccccc1O.[Ga+3] [GaSal, gallium salophen]	0.22
COCCOc1ccc(/C=N/c2ccccc2/N=C/c2ccc(OCCOC)cc2O)c(O)c1.[Ga+3] [GaSal-13]	0.55

====

# measurement protocol: RBC/PL partitioning equilibrium in whole blood
# applied conditions: 1 μg/mL, pooled K2EDTA whole blood, 2 hours, LC-MS/MS (ICP-MS for Ga^3+)
Grouping rule (K2EDTA KRBC/PL): low end: < 0.1; middle: ≥ 0.1 and < 2; high end: ≥ 2

compound string	answer label
COCCOc1ccc(/C=N/c2ccccc2N=C(C)c2ccccc2O)c(O)c1.[Ga+3]	middle
Oc1cc(OCCN2CCOCC2)ccc1C=Nc1ccccc1N=Cc1ccc(OCCN2CCOCC2)cc1O.[Ga+3]	middle
CCCCOc1ccc(/C=N/c2ccccc2/N=C/c2ccc(OCCCC)cc2O)c(O)c1.[Ga+3]	high end
CC(=Nc1ccccc1/N=C/c1ccc(OCCCO)cc1O)c1ccccc1O.[Ga+3]	middle
OCCCOc1ccc(/C=N/c2ccccc2/N=C/c2ccc(OCCCO)cc2O)c(O)c1.[Ga+3]	low end
COCCOc1ccc(/C=N/c2ccccc2/N=C/c2ccc(OCCOC)cc2O)c(O)c1.[Ga+3]	low end
CC(=Nc1ccccc1N=Cc1ccc(OCCC(=O)O)cc1O)c1ccccc1O.[Ga+3]	high end
O=C(O)CCOc1ccc(C=Nc2ccccc2N=Cc2ccc(OCCC(=O)O)cc2O)c(O)c1.[Ga+3]	high end
Oc1ccccc1/C=N/c1ccccc1/N=C/c1ccccc1O.[Ga+3]	middle

====

Readings of pKd for the listed compounds
# experimental system: HasA (Pseudomonas aeruginosa, UniProt G3XD33)
# Sequence (G3XD33 entry or part of it): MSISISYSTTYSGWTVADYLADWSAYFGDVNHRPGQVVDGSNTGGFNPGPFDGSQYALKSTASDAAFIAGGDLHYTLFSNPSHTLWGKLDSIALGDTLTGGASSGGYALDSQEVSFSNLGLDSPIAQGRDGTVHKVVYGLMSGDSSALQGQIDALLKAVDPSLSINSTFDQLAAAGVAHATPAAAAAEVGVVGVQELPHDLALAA
# measurement protocol: Kd determination by fluorescence quenching of apo-HasAp
# applied conditions: read-out: HasA Kd; apo-HasAp 1 μM, 20 mM sodium phosphate pH 7.4, 25 °C, one-site binding fit
pKd: −log10 of the molar value.

compound	pKd
C[N+](C)(C)CCOc1ccc(/C=N/c2ccccc2/N=C/c2ccc(OCC[N+](C)(C)C)cc2O)c(O)c1.[Ga+3] [GaSal-1]	5.60
CC(=Nc1ccccc1/N=C/c1ccc(OCCCO)cc1O)c1ccccc1O.[Ga+3] [GaSal-12]	6.28
COCCOCCOc1ccc(C=Nc2ccccc2N=Cc2ccc(OCCOCCOC)cc2O)c(O)c1.[Ga+3] [GaSal-5]	5.60
COCCOc1ccc(/C=N/c2ccccc2N=C(C)c2ccccc2O)c(O)c1.[Ga+3] [GaSal-14]	5.55
CCCCOc1ccc(/C=N/c2ccccc2/N=C/c2ccc(OCCCC)cc2O)c(O)c1.[Ga+3] [GaSal-15]	5.70
CC(=Nc1ccccc1N=Cc1ccc(OCCN2CCOCC2)cc1O)c1ccccc1O.[Ga+3] [GaSal-8]	5.28
CC(=Nc1ccccc1N=Cc1ccc(OCCN(C)C)cc1O)c1ccccc1O.[Ga+3] [GaSal-7]	5.30
CN(C)CCOc1ccc(C=Nc2ccccc2N=Cc2ccc(OCCN(C)C)cc2O)c(O)c1.[Ga+3] [GaSal-2]	5.92
